Source listed as ChEMBL document CHEMBL1157581.

Study System: UniProtKB P15559
Sequence (P15559 whole entry): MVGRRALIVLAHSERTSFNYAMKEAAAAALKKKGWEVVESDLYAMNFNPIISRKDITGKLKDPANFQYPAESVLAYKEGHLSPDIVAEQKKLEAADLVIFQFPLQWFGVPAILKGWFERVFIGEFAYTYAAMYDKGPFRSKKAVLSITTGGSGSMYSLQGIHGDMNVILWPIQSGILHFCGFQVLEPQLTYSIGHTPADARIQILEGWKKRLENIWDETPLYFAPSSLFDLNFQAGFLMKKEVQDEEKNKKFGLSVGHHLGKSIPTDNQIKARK
Assay Details: Activity of human NQO1 assessed as initial rate of compound reduction per mg of protein at 25 uM in presence of NADH by cytochrome c reduction assay
Endpoint: Activity

compound="CC(=O)NC1=CC(=O)c2ccc(-c3nc(C(=O)NCC(O)CO)cc4c3[nH]c3ccccc34)nc2C1=O (centres undefined)" endpoint=Activity value_measured="36 µmol/min"
compound=CC(C)CCOC(=O)c1cc2c([nH]c3ccc(O)cc32)c(-c2ccc3c(n2)C(=O)C(N)=CC3=O)n1 endpoint=Activity value_measured="2.9 µmol/min"
compound=CCCOC(=O)c1cc2c([nH]c3ccccc32)c(-c2ccc3c(n2)C(=O)C(NC(C)=O)=CC3=O)n1 endpoint=Activity value_measured="6.8 µmol/min"
compound=NC1=CC(=O)c2ccc(-c3nc(C(=O)NCCO)cc4c3[nH]c3ccccc34)nc2C1=O endpoint=Activity value_measured="26 µmol/min"
